Task for the reader: assign each of the following sequences its reported shrunken log2 fold change.
System: Escherichia coli TOP10
Protocol summary: shrunken log2 fold change of peptide-encoding DNA abundance (4.5 h post-induction vs induction); higher = less antimicrobial activity (less host growth inhibition)
Condition summary: time post-induction: 4.5 h; library: site-saturation at positions 5, 18, 19, 20

Query block: Any idea what its shrunken log2 fold change is? The sequence is "RRIRTRPPRLPRPRPRPWNIPRP"
Result block: 0.0303

Query block: Same again, this time with "RRIRQRPPRLPRPRPRPNCYPRP"
Result block: -0.284

Query block: Same again, this time with "RRIRLRPPRLPRPRPRPHAGPRP"
Result block: 0.168

Query block: Same again, this time with "RRIRKRPPRLPRPRPRPHVPPRP"
Result block: 0.207

Query block: Same again, this time with "RRIRQRPPRLPRPRPRPRQPPRP"
Result block: 0.622

Query block: Same again, this time with "RRIRWRPPRLPRPRPRPYSQPRP"
Result block: -0.425

Query block: Same again, this time with "RRIRTRPPRLPRPRPRPWCGPRP"
Result block: -0.0198

Query block: Same again, this time with "RRIRFRPPRLPRPRPRPDEGPRP"
Result block: 0.101

Query block: Same again, this time with "RRIRYRPPRLPRPRPRPHHVPRP"
Result block: -0.00992

Query block: Same again, this time with "RRIRKRPPRLPRPRPRPLHWPRP"
Result block: 0.59

Query block: Same again, this time with "RRIRFRPPRLPRPRPRPEYHPRP"
Result block: -0.202

Query block: Same again, this time with "RRIRHRPPRLPRPRPRPLKGPRP"
Result block: 0.0721

Query block: Same again, this time with "RRIRGRPPRLPRPRPRPFLWPRP"
Result block: 0.996

Query block: Same again, this time with "RRIRSRPPRLPRPRPRPWQLPRP"
Result block: -0.018

Query block: Same again, this time with "RRIRYRPPRLPRPRPRPSESPRP"
Result block: -0.0299

----------
Tested on: Escherichia coli TOP10;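 note: peptides expressed intracellularly from a pBAD plasmid library in pooled LB shake-flask culture, induced with 0.3% L-arabinose, DNA abundance read by NGS, three biological replicates, DESeq2 with apeglm shrinkage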
Protocol summary: shrunken log2 fold change of peptide-encoding DNA abundance (4.5 h post-induction vs induction); higher = less antimicrobial activity (less host growth inhibition)
Condition summary: time post-induction: 4.5 h; library: site-saturation at positions 5, 18, 19, 20
Quantity kind: shrunken log2 fold change
Please respond with just the number, no unit label.

Query block: Any idea what its shrunken log2 fold change is? The sequence is "RRIRVRPPRLPRPRPRPDCVPRP"
Result block: 0.0012

Query block: Same again, this time with "RRIRWRPPRLPRPRPRPRFTPRP"
Result block: 0.307

Query block: Same again, this time with "RRIRDRPPRLPRPRPRPLIQPRP"
Result block: 0.365

Query block: Same again, this time with "RRIRPRPPRLPRPRPRPWSCPRP"
Result block: -0.165

Query block: Same again, this time with "RRIRHRPPRLPRPRPRPFLDPRP"
Result block: -0.751

Query block: Same again, this time with "RRIRKRPPRLPRPRPRPQFLPRP"
Result block: 0.0482

Query block: Same again, this time with "RRIRVRPPRLPRPRPRPDNTPRP"
Result block: -0.426

Query block: Same again, this time with "RRIRKRPPRLPRPRPRPISPPRP"
Result block: 0.305

Query block: Same again, this time with "RRIRARPPRLPRPRPRPEYAPRP"
Result block: 0.672

Query block: Same again, this time with "RRIRDRPPRLPRPRPRPMQTPRP"
Result block: 0.0424

Query block: Same again, this time with "RRIRHRPPRLPRPRPRPCRGPRP"
Result block: 0.00172

Query block: Same again, this time with "RRIRGRPPRLPRPRPRPVRTPRP"
Result block: 1.3

Query block: Same again, this time with "RRIRLRPPRLPRPRPRPCGIPRP"
Result block: 0.142

Query block: Same again, this time with "RRIRIRPPRLPRPRPRPRMNPRP"
Result block: -0.593

Query block: Same again, this time with "RRIRHRPPRLPRPRPRPIHWPRP"
Result block: -0.0298

Query block: Same again, this time with "RRIRTRPPRLPRPRPRPDHHPRP"
Result block: -0.474

Query block: Same again, this time with "RRIRYRPPRLPRPRPRPTDVPRP"
Result block: -0.122

Query block: Same again, this time with "RRIRARPPRLPRPRPRPFSNPRP"
Result block: -0.342

Query block: Same again, this time with "RRIRGRPPRLPRPRPRPKSQPRP"
Result block: 0.556

Query block: Same again, this time with "RRIRNRPPRLPRPRPRPRLKPRP"
Result block: -0.00493

Query block: Same again, this time with "RRIRIRPPRLPRPRPRPKFQPRP"
Result block: -0.327

Query block: Same again, this time with "RRIRTRPPRLPRPRPRPMPMPRP"
Result block: 0.467

Query block: Same again, this time with "RRIRMRPPRLPRPRPRPHDFPRP"
Result block: 0.143

Query block: Same again, this time with "RRIRRRPPRLPRPRPRPDEMPRP"
Result block: 0.753

Query block: Same again, this time with "RRIRPRPPRLPRPRPRPHEEPRP"
Result block: -0.000777

Query block: Same again, this time with "RRIRMRPPRLPRPRPRPFSYPRP"
Result block: -0.029

Query block: Same again, this time with "RRIRSRPPRLPRPRPRPHENPRP"
Result block: 0.0415

Query block: Same again, this time with "RRIRFRPPRLPRPRPRPAHVPRP"
Result block: -0.0462

Query block: Same again, this time with "RRIRERPPRLPRPRPRPFAKPRP"
Result block: -0.386

Query block: Same again, this time with "RRIRARPPRLPRPRPRPIGLPRP"
Result block: 0.076

Query block: Same again, this time with "RRIRMRPPRLPRPRPRPVYQPRP"
Result block: -0.372

Query block: Same again, this time with "RRIRSRPPRLPRPRPRPVMRPRP"
Result block: 0.594
